test: yeast display, Sf9 membrane polyspecificity reagent, FACS + sequencing; frameworks hold sequencing errors
metric name: polyreactivity (PSR sort gate)

INSERT INTO assay_data (construct_sequence, metric_name, measurement) VALUES
  ('QVQLVESGGGLVQAGGSLRLSCAASGSIFIGYAMGWYRQAPGKERELVAAITNGGRTYYADSVKGRFTISRDNAKNTVYLQMNSLKPEDTAVYYCAAVPSQTYRRTPYLWHDYWGQGTQVTVSS', 'polyreactivity (PSR sort gate)', 'high polyreactivity'),
  ('QVQLVETGGGLVQAGGSLRLSCAASGRIYYVYDMGWYRQAPGKERELVAAISWSGGSTSYADSVKGRFTISRDNAKYTVYLQMNSLKPDDTAVYYCAATSAIGWGYDYWGQGTQVTVSS', 'polyreactivity (PSR sort gate)', 'low polyreactivity'),
  ('QDQLVESGGGLVQAGGSLRLSCAASGSIFWLYAMGWYRQAHGKERELVASITGGGSTNYADSVKGRFTISRDNAKNTVYLQMNSLKPEDTAVYYCAKRYYRTGRKRTGLDYWGQGTQVTVSS', 'polyreactivity (PSR sort gate)', 'high polyreactivity'),
  ('QVQLVESGGGLVQAGGSLRLSCAASGSIFSSYAMGWYRQAPGKERELVAAISQSGGDTYYADSVKGRFTISRDIAKNTVYLQMNSLKPEDTAVYYCAACVWYYPMDYWGQGTQGTVSS', 'polyreactivity (PSR sort gate)', 'low polyreactivity'),
  ('QLQLQESSGGLVQAGGSMRMTCAASGTIFHFHIMGWYRPAPGKEREFVAAISYGTSTYYADSVKGRFTISRDNAKNTVYLQMNSQKPEDTAVYYCAVYDYLEVYCWYWGQGTQVTVSS', 'polyreactivity (PSR sort gate)', 'low polyreactivity'),
  ('QVQLVESGGGLVQAGGSLRLSCAASGSTLVIYAMGWYRQAPGKEREFVAAIRWSTGRTYYADSVKGRFTISRDNAKNTVYLQMNSLKPEDTAVYYCNASYWAPNSLPDGFRYDSWGQGTQVTVSS', 'polyreactivity (PSR sort gate)', 'high polyreactivity'),
  ('QVQLVESGGGIVQAGGSLRLSCAASGSTFNYYAMGWYRQAPGKERELVAAISISGGSTYYADSVKGRFTISRDNAKNTVYLQMNSLKPEDTAVYYCAAVPYGFVGYDDYWGQGTQVTVSS', 'polyreactivity (PSR sort gate)', 'low polyreactivity'),
  ('QFQLVESGGGLDQAGGSLRLSCAASGFTLNRNAMGWYRQAPGKETELVAAITRGGRTYYADSVKGRFTISRDNAKNTVYLQMNSLKPEDTAVYYCARTVGYRTLLESDSWGQGTQVTVSS', 'polyreactivity (PSR sort gate)', 'high polyreactivity'),
  ('QVQLVESGGGLVQAGGSLRLSCAASGSILWDNAMGWYRQAPGKERELVATISVSGGGTYYADSVKGRFTISLDNAKNTVYLQMNSLKPEDTSVYYCNARYGNESQGWEDYWGQGTQVTVSS', 'polyreactivity (PSR sort gate)', 'low polyreactivity');
